Sourced from patent US10619138B2

# ASSAY_TARGET: Arabidopsis HPPD (SEQ ID NO: 42) (Arabidopsis thaliana, UniProt P93836)
# Sequence (P93836 1-445): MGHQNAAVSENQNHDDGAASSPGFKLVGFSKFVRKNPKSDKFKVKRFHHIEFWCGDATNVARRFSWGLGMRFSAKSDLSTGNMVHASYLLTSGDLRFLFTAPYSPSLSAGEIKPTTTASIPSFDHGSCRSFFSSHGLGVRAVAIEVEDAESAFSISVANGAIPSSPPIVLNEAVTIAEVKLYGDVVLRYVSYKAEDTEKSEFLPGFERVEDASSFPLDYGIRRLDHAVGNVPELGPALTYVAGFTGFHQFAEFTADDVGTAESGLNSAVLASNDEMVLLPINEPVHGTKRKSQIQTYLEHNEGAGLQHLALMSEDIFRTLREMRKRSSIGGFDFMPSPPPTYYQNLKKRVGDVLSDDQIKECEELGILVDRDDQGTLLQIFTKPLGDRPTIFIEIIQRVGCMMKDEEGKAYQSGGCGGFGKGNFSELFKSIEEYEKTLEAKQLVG
PROPERTY: pKi
Scale: negative log10 of molar concentration, which is what pKi denotes.

Enquiry: Any idea what pKi was measured for Cc1c(C(=O)c2cnn(C)c2O)ccc(S(C)(=O)=O)c1C1=NOCC1 [Inhibitor 1] ?
Return: 9.02

Enquiry: Any idea what pKi was measured for CN(c1c(Cl)ccc(C2=C(O)c3ncccc3C(C)(C)S2(=O)=O)c1Cl)S(C)(=O)=O [Inhibitor 4] ?
Return: 7.54
